- measured.on: Sphingosine 1-phosphate receptor 4 (Homo sapiens) (UniProt O95977)
- Sequence (O95977 whole entry, looked up): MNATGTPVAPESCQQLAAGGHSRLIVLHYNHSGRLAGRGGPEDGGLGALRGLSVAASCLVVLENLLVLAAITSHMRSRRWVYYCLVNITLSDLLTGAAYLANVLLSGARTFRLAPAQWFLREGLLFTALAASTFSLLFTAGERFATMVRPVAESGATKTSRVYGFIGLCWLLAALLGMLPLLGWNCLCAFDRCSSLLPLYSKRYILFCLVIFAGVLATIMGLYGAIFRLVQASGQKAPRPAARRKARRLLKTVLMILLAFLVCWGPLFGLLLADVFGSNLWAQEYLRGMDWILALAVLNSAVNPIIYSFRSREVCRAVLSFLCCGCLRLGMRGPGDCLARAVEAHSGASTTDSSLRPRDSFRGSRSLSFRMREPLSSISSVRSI
- assay.info: S1P4 receptor antagonists, human, confirmation, cell-based (AID 1524)
- test.parameters: S1P4-expressing cell line, antagonist mode, reporter read-out; at 4.98 µM
Some of the results follow. Active and inactive are the calls of the source. Cut-off read from the data, not from the text of the source: active = inhibition above about 30%; inactive = the rest.
// allowed return values: True (active), False (inactive)

- C[C@@H](NC(=O)OC(C)(C)C)c1nnc(S(=O)(=O)Cc2ccccc2)o1: True
- O=C(Nc1ccccc1Cl)/C(Cl)=C(\Cl)S(=O)c1ccccc1 (configuration not stated): True
- O=C1c2cccc3c([N+](=O)[O-])ccc(c23)C(=O)N1CC1CCCO1 (configuration not stated): True
- Cc1cc(C)nc(S/C=C/C(=O)c2ccccc2)n1: True
- Nc1nonc1-c1nc2ccccc2n1Cc1ccc(F)cc1: True
- O=C(NC(Nc1nc2ccc([N+](=O)[O-])cc2s1)(C(F)(F)F)C(F)(F)F)c1ccccc1: True

Problem: Hey, what did the test say about "O=C(/C=C/c1ccc(Cl)cc1Cl)c1cccnc1" ?
Result: True

Problem: Hey, what did the test say about "Cc1cccc(NC(=O)c2ccc([N+](=O)[O-])o2)c1" ?
Result: True

Problem: Hey, what did the test say about "CCOC(=O)/C=C/C(=O)OCC(=O)NC(c1ccccc1)c1ccccc1" ?
Result: True

Problem: Hey, what did the test say about C=CS(=O)c1sc(Cl)c(N2CCOCC2)c1[N+](=O)[O-] (configuration not stated) ?
Result: True

Problem: Hey, what did the test say about "O=C1C=C(c2ccc(Cl)cc2)C(=O)N1Nc1ccccc1" ?
Result: True

Problem: Hey, what did the test say about "CNc1ccc(SC#N)cc1" ?
Result: False

----------
- measured.on: Nuclear receptor coactivator 3 (Homo sapiens) (UniProt Q9Y6Q9)
- Sequence (Q9Y6Q9 whole entry, looked up): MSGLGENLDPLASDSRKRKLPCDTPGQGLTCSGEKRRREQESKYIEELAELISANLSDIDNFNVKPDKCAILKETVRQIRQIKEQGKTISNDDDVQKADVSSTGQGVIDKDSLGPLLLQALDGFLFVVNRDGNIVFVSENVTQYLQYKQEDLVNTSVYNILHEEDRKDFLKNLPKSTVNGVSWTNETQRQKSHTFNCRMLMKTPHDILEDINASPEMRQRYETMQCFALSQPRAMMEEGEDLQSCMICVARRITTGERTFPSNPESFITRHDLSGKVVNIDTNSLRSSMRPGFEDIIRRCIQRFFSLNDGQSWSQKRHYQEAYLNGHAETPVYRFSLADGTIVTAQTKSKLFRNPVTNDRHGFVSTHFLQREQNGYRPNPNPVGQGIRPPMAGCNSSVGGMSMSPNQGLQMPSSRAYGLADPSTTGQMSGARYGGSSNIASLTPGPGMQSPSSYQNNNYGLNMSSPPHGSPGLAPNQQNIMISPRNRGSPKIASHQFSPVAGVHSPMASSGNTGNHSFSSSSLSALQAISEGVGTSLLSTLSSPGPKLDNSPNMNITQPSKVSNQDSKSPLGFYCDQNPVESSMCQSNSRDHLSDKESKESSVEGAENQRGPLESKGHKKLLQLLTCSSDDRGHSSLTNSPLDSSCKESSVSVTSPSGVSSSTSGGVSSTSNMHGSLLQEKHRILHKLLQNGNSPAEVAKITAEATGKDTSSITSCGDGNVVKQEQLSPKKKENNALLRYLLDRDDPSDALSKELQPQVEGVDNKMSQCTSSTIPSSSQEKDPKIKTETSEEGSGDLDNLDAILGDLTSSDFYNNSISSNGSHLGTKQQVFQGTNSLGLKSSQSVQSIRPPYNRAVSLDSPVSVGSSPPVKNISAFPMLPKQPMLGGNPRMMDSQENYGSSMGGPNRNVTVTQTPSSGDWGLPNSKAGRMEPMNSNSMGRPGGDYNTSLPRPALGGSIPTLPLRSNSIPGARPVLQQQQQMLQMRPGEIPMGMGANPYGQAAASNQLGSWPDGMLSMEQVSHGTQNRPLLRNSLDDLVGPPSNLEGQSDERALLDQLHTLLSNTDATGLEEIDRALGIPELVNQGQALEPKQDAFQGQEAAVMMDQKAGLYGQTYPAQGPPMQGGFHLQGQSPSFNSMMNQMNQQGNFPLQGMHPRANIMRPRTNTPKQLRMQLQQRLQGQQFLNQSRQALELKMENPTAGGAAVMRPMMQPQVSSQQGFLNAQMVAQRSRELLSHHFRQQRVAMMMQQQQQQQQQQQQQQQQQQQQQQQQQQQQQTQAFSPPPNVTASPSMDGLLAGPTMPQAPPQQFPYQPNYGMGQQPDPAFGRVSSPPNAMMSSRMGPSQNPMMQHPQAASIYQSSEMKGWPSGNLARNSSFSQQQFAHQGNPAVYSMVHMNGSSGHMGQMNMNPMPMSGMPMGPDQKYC
- assay.info: SRC3 coactivator transcriptional activity inhibitors, confirmation, cell-based, luminescence, quadruplicate (AID 588792)
- test.parameters: HEK293 GAL4-SRC3 luciferase reporter, at 3.6 µM
Activity calls are given as the source filed them.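 Rule for the calls: active = mean inhibition over 43.08%, the solvent-only control mean plus 3 SD; inactive = the rest.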
// allowed return values: True = active, False = inactive

Some entries whose results are on file:
* Nc1ccc(-c2cnc(N)c(C(=O)c3cccnc3)n2)cn1 | True
* Nc1nonc1-n1nnc(C(=O)N/N=C/c2cc(Br)ccc2O)c1CSC1=NCCS1 | False

Problem: Hey, what did the test say about CNCC(C)COc1ccccc1OCc1ccccc1 (stereo not drawn) ?
Result: False

Problem: Hey, what did the test say about "C[C@H](NC(=O)Nc1ccccc1F)C(=O)O" ?
Result: False

----------
- measured.on: Protein phosphatase methylesterase 1 (Homo sapiens) (UniProt Q9Y570)
- Sequence (Q9Y570 whole entry, looked up): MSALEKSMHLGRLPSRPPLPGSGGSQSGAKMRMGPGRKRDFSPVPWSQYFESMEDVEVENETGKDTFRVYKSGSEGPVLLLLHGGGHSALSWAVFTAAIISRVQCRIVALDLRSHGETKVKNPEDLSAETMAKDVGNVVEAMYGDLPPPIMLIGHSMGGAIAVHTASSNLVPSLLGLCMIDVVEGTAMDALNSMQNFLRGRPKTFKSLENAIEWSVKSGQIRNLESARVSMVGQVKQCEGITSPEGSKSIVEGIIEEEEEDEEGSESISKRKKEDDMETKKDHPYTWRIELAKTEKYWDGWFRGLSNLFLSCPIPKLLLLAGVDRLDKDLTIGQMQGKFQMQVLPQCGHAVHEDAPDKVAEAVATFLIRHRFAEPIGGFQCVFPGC
- assay.info: PME-1 inhibitor activity retest, confirmation, biochemical, fluorescence polarization, FP-Rh probe, triplicate (AID 2171)
- test.parameters: recombinant PME-1, FP-Rh probe fluorescence polarization; at 5.9 µM
Activity calls are given as the source filed them.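 How the source made its calls: active means inhibition above the hit cutoff set in the earlier primary screen (cut at about 27% in these data); inactive means the rest.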
// allowed return values: active, inactive

• Cc1ccc(NC(=S)NC(=O)c2ccc(-c3ccc(Cl)cc3)o2)c(O)c1 = inactive
• O=C(NNc1c2ccccc2nc2ccccc12)c1ccccc1O = active
• Cc1ccc(Nc2nnc(SCC(=O)c3ccc(O)cc3O)s2)cc1 = active
• Cc1ccc2nc(/C(C#N)=C/c3ccc(O)c(O)c3)[nH]c2c1 = inactive
• N#CC1=C(N)C(C#N)(C#N)C(c2cccnc2)C2CC(c3ccccc3)CC=C12 (stereo not given) = active
• COc1ccc(NC(C(=O)Nc2cccc(C(C)=O)c2)c2ccccc2)cc1 (stereo not given) = active
• C=C(C)COc1ccc(-c2[nH]ncc2-c2ccc(OC)c(OC)c2)c(O)c1 = inactive
• Cc1nn(-c2ccc(Br)cc2)c(=O)c2ccccc12 = inactive
• COc1ccc(C(=O)Nc2ccccc2C(=O)N/N=C/c2ccc(O)c(OC)c2)cc1 = active
• Cc1[nH]c2ccccc2c1/C=N/NC(=O)c1cc(-c2ccncc2)nc2ccccc12 = inactive

Problem: Hey, what did the test say about "COc1ccc(-c2cc(-c3ccc(C)cc3)n[nH]2)c(O)c1" ?
Result: active

Problem: Hey, what did the test say about "O=C(O)c1ccc(N/N=C/c2cn(Cc3ccccc3F)c3ccccc23)cc1" ?
Result: active

Problem: Hey, what did the test say about "CN(C)c1ccc(NC(=O)Nc2ccc3snnc3c2)cc1" ?
Result: inactive

Problem: Hey, what did the test say about CCCCN(C)C1=CC2=CC(=C(C#N)C#N)CCC2CC1 (stereo not given) ?
Result: inactive

Data provenance: PubChem BioAssay
